- assayNotes: protein stability index of a GFP-peptide fusion (yeast GPS) (PSI 1-4); higher = more stable; sorted into four equal gates, so the index is relative within each strain
- appliedConditions: san1∆
Recorded protein stability index, one value per entry.
measurementName: protein stability index

- GPENALNVYHYFGENSS [YJL039C/NUP192]: 2.06
- VTLASILTTAVGLVSPS [RPN1]: 2.25
- KRLTEDERIEKELNTER [CDC53]: 2.33
- KESIVLPTVGFDFIKDN [YOR098C/NUP1]: 3.05
- EGDIQVLKSYGAAPYAA [RPT1]: 3.05
- QIQKNGPEITPEEATTI [PRP8]: 2.83
- DLSANQRETMKERKLRE [SMC1]: 2.96
- CFVLGIASMSTVRASSL [SMC2]: 1.83
- LKDLNLTVSIKIALMNI [RGR1]: 1.73
- DPQQVFDERIKFANQLH [RPN3]: 1.41
- GSKSASKQTPQPKAPRA [ISW2]: 2.76
- DLNKENKLLRRKLMEME [YIL149C/MLP2]: 3.33
- SPAALKQLASLKKSEEI [YMR153W/NUP53]: 2.65
- LLEQDTSTEKLYKLNDK [PRE9]: 2.91

---

- assayNotes: protein stability index of a GFP-peptide fusion (yeast GPS) (PSI 1-4); higher = more stable; sorted into four equal gates, so the index is relative within each strain
- appliedConditions: pdr5∆
Recorded protein stability index, one value per entry.
measurementName: protein stability index

* DWNKRFSHLAGGKIINK [BRR2] | 3.33
* APLKHGVGILYKGMASN [BRR2] | 1.68
* IKEKVQFNATINPESRE [ITC1] | 1.6
* GKTLAFVIPILIKMSRS [PRP28] | 1.62
* DATNTSYKMIQLDAYGE [SWP82] | 3.39
* QEQLKNVKNDVSFNDSQ [YIL149C/MLP2] | 3.5
* VGVNKDSYLILDTLPSE [RPT5] | 3.18
* NCEYEDPPNEGDPFDYK [RPB3] | 3.4
* NTFGSSSLFNNSTNSNT [YJL041W/NSP1] | 2.44
* RFAFSVIWELDDSANIV [DIS3] | 2.49
* SMCGFEVRILPRQRMEE [PRP8] | 1.87
* IDDANVTRKQEDARRNP [RPC37] | 1.8
* HRIGQKKQVHVYRFVTE [ISW2] | 2.33
* NSIRAREVENSVSLLNS [SMC1] | 2.78
* NLLTPQPTNFTTKRLWS [MCD1] | 2.79

---

Recorded protein stability index, one value per entry.
- assayNotes: protein stability index of a GFP-peptide fusion (yeast GPS) (PSI 1-4); higher = more stable; sorted into four equal gates, so the index is relative within each strain
- appliedConditions: san1∆
measurementName: protein stability index

• YQMQSNYESVFTYNKFL [YIL149C/MLP2] = 1.55
• MQNSKVESVCQKLDILV [SMC4] = 2.3
• DKKNKRLKFGHRLIATH [SNF2] = 1.85
• PKYIDELKTRDATNTSY [SWP82] = 2.58
• EYKLATYGVPGSENKRG [NUT1] = 3.33
• DSEKHIDFAPTSPFGGA [RPS9A] = 2.69
• DADKLSFNCENFFQAPQ [YML031W/NDC1] = 2.36
• FSWISVVNDLVGEKLVV [SIR3] = 3.26
• PSYSPTSPSYSPTSPSY [RPO21] = 2.86
• NVEKPSSKPAFNLISNA [YLR335W/NUP2] = 3.14
• FYLMVSSLSFGPENALN [YJL039C/NUP192] = 1.39
• DAMVTRTPVIISLRNNH [SMD2] = 1.43
• TTSLNPIQSKVFHAAFE [BRR2] = 2.08
• LNECLKTIQINNEKVVQ [YML031W/NDC1] = 1.29

---

- assayNotes: protein stability index of a GFP-peptide fusion (yeast GPS) (PSI 1-4); higher = more stable; sorted into four equal gates, so the index is relative within each strain
- appliedConditions: doa10∆
measurementName: protein stability index

• YHLHPTFANPNRTFTDP [TAF14] = 1.94
• ENPNFWRQFGNRMQISP [GRR1] = 3.14
• SSQLNKLTDEQSSLDVA [SIR3] = 2.66
• SKVSIEQRKEAAEFVLA [RPN7] = 2.12
• GGKIINKLGNDPSLNLK [BRR2] = 2.27
• QRIIADLSADKPTSPFI [SRB8] = 2.78
• QGTNSVPNSIGNIFSNI [SNF5] = 2.91
• CLFTKCLEDPEKPFNEN [POP4] = 2.67

---

- assayNotes: protein stability index of a GFP-peptide fusion (yeast GPS) (PSI 1-4); higher = more stable; sorted into four equal gates, so the index is relative within each strain
- appliedConditions: doa10∆
Category | rule: reported protein stability index within range, see 0 = under 2, 1 = from 2 up to 3, 2 = 3 and over

* RYFFYLSKINAIQLDYS [RPN3] | 0
* HSNRCIVFSKKEPFPHS [CSN12] | 1
* TDRESYPRLQDPSRELN [YCS4] | 2
* DLVIVDENELKKSEEKL [MTW1] | 2
* KLANFFSKKGNEPLSEI [YAR002W/NUP60] | 1
* PTETYSDVGGLDKQIEE [RPT5] | 2
* SNEEQRNLDSATLKEIK [SMC3] | 2
* PEYAKVGDFLLQYANNA [SIN4] | 1
* CDGDTVWDKFAVNLLNC [SSN2] | 2
* DMATGSNDTTAFNDSCV [SRB8] | 1
* DESYARAYRIIRAHQTE [QCR7] | 2
* TVTIASSLNLEDTPAND [RPB8] | 1
* ADAGIELVDMAGAGEAN [MTR3] | 1
* EIYTVEDRPPEYWAQRK [ISW2] | 2
* KGDLRRGFIKSEGSGSS [RPC53] | 2
* LPKFLTVQYVRFFWKRS [UBP6] | 0
* ELWRKEQKLQTVLETLL [SMC3] | 1
* LTAIPILLEPIYEVDIT [SNU114] | 1
* IETIGHLITKEEIMHGL [RPN5] | 1
* QLAVKIINKVLDYQETY [YJL039C/NUP192] | 0
* PGHEMEDFLDKSYYLNT [AAR2] | 2
* QEAFKIYQHLASHNEKD [SRP72] | 0

---

- assayNotes: protein stability index of a GFP-peptide fusion (yeast GPS) (PSI 1-4); higher = more stable; sorted into four equal gates, so the index is relative within each strain
- appliedConditions: pdr5∆
Recorded protein stability index, one value per entry.
measurementName: protein stability index

• STVASALDTNGTSATTE [SIR4] = 2.15
• NLRRHSDIVLDKKVTLI [SIN4] = 3.05
• LIYVNPFMLQWGIPLIK [FAS1] = 1.4
• PSTTDDENGDKNDNGGK [SWI3] = 3.3
• YGEAPTSPGFGVSSPGF [RPO21] = 3.45
• VKPLESSAKRSKNTAVS [SRP72] = 2.92
• TLPEKKQFDSIFNSNKA [SIR4] = 2.77
• EEQLDLLSAILDPSKSK [MED11] = 3.18
• FGNSLSNTVNANNYSSN [YDL088C/ASM4] = 3
• TASKIIVIDVDYNKKQD [MED1] = 2.58
• ILSGFHNAGPVAGAGAA [RPP1B] = 2.97
• SRIYKTIKVAGTPLLEV [SNU114] = 2.38
• VVVKNWGAETDELSMIM [RPS12] = 3.4
• LKRNSWPKTRGVAMNPV [RPL2A] = 3.32
• NLLLSASRDKTLISWKL [ASC1] = 2.79
• IEPVTKVSSLKMFIQRI [YCS4] = 2.9
• ALRALARSGLRIGRIED [RPS14A] = 2.12
• CFSQENIEEMARVILYL [SIN4] = 2.76
• MQPFDSGHDDLVHDVVY [YGL100W/SEH1] = 3.43
• SKTVVTLSEPVQGELKP [FAS1] = 2.73
• NDFFPGEVVYLRKQKDS [ITC1] = 1.39
• KLFTTNELMRWPIVQKT [RPN5] = 1.77
• LGPLFKKIVDDTIMENP [IRR1] = 2.88
• KNISSQLDSKLMVFNDD [YGR119C/NUP57] = 2.54
• MFIEEPTRMVRVAKGSG [SRP54] = 2.95
• EEAGSPLVYRHELITNI [RPB9] = 3.39
• SRYILFEIIFPPTDTNV [POP5] = 1.41
• EAVKQAAKIIYLAHEDN [PRE10] = 3.02
• NRVPDGFQDRSLPHFPK [RPO31] = 2.86
• LNLTGPKVPEDIYKSHL [RPN1] = 3.11

The measured values listed here are drawn from the supplement of paper PMC9732359.
